B1: library; a variant is named by its letters at N, in order (parent)
chain: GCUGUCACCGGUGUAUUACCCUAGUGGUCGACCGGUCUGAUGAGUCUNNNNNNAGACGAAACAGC

variants of: B1; test: normalized RNA/DNA level without ligand (relative to sTRSVctl = 100) (log10 (% of sTRSVctl)); ligand: hypoxanthine (xanthine aptamer); higher = less ribozyme self-cleavage, higher mRNA level; settings: HEK293T, reporter: mCherry (pCS4076), ligand present: no
measurementKind: normalized RNA/DNA level without ligand (log10)
Please reply with the number alone, leaving off any unit.

These solved cases illustrate the format of a correct answer.
{"mutations": "UAACCC", "recordedNumber": 1.86}
{"mutations": "UCACGG", "recordedNumber": 1.79}
{"mutations": "GUAAGG", "recordedNumber": 1.38}
{"mutations": "AUCCGC", "recordedNumber": 1.8}
{"mutations": "AUUCCU", "recordedNumber": 1.89}
{"mutations": "AUAGCA", "recordedNumber": 1.78}
{"mutations": "AUGGGU", "recordedNumber": 1.53}
{"mutations": "UCGCGA", "recordedNumber": 1.69}
{"mutations": "UUCGCA", "recordedNumber": 1.86}
{"mutations": "CUCCGG", "recordedNumber": 1.95}

# evaluate next
Recorded normalized RNA/DNA level without ligand (log10) of AUUGUU , please.
1.83
